assay: Antiproliferative activity against human L02 cells assessed as cell growth inhibition at 1 uM incubated for 72 hrs by SRB assay; assay type: toxicity, cell-based
Quantity: inhibition at 72 h, 1 µM

>  <Chemical Smiles>
CC(=O)OC(C)(C)/C=C/C(=O)[C@](C)(O)[C@H]1[C@H](O)C[C@@]2(C)[C@@H]3CC=C4[C@@H](C[C@H](OC(=O)Cn5ncn(-c6ccc(Cl)cc6)c5=O)C(=O)C4(C)C)[C@]3(C)C(=O)C[C@]12C

>  <Obs Value>
70.9%

$$$$
>  <Chemical Smiles>
COc1ccc(-n2cc(C(=O)O[C@H]3C[C@@H]4C(=CC[C@@H]5[C@@]4(C)C(=O)C[C@]4(C)[C@@H]([C@@](C)(O)C(=O)/C=C/C(C)(C)OC(C)=O)[C@H](O)C[C@@]54C)C(C)(C)C3=O)nn2)cc1

>  <Obs Value>
73.1%

$$$$
>  <Chemical Smiles>
COc1ccc(/C=C/C(=O)O[C@H]2C[C@@H]3C(=CC[C@@H]4[C@@]3(C)C(=O)C[C@]3(C)[C@@H]([C@@](C)(O)C(=O)/C=C/C(C)(C)OC(C)=O)[C@H](OC(=O)/C=C/c5ccc(OC)cc5)C[C@@]43C)C(C)(C)C2=O)cc1

>  <Obs Value>
0.89%

$$$$
>  <Chemical Smiles>
CC(=O)OC(C)(C)/C=C/C(=O)[C@](C)(O)[C@H]1[C@H](O)C[C@@]2(C)[C@@H]3CC=C4[C@@H](C[C@H](OC(=O)c5ccco5)C(=O)C4(C)C)[C@]3(C)C(=O)C[C@]12C

>  <Obs Value>
69.2%

$$$$
>  <Chemical Smiles>
CC(=O)OC(C)(C)/C=C/C(=O)[C@](C)(O)[C@H]1[C@H](OC(=O)/C=C/c2ccc(F)cc2)C[C@@]2(C)[C@@H]3CC=C4[C@@H](C[C@H](OC(=O)/C=C/c5ccc(F)cc5)C(=O)C4(C)C)[C@]3(C)C(=O)C[C@]12C

>  <Obs Value>
6.72%

$$$$
>  <Chemical Smiles>
CC(=O)OC(C)(C)/C=C/C(=O)[C@](C)(O)[C@H]1[C@H](OC(=O)/C=C/c2ccc(C)cc2)C[C@@]2(C)[C@@H]3CC=C4[C@@H](C[C@H](OC(=O)/C=C/c5ccc(C)cc5)C(=O)C4(C)C)[C@]3(C)C(=O)C[C@]12C

>  <Obs Value>
8.01%

$$$$
>  <Chemical Smiles>
COc1cc(-n2cnn(CC(=O)O[C@H]3C[C@@H]4C(=CC[C@@H]5[C@@]4(C)C(=O)C[C@]4(C)[C@@H]([C@@](C)(O)C(=O)/C=C/C(C)(C)OC(C)=O)[C@H](O)C[C@@]54C)C(C)(C)C3=O)c2=O)cc(OC)c1OC

>  <Obs Value>
70%

$$$$
>  <Chemical Smiles>
CC(=O)OC(C)(C)/C=C/C(=O)[C@](C)(O)[C@H]1[C@H](O)C[C@@]2(C)[C@@H]3CC=C4[C@@H](C[C@H](OC(=O)c5cn(-c6ccc(Br)cc6)nn5)C(=O)C4(C)C)[C@]3(C)C(=O)C[C@]12C

>  <Obs Value>
73.6%

$$$$
>  <Chemical Smiles>
CC(=O)OC(C)(C)/C=C/C(=O)[C@](C)(O)[C@H]1[C@H](OC(=O)/C=C/c2ccccc2)C[C@@]2(C)[C@@H]3CC=C4[C@@H](C[C@H](O)C(=O)C4(C)C)[C@]3(C)C(=O)C[C@]12C

>  <Obs Value>
13.2%

$$$$
>  <Chemical Smiles>
CC(=O)OC(C)(C)/C=C/C(=O)[C@](C)(O)[C@H]1[C@H](O)C[C@@]2(C)[C@@H]3CC=C4[C@@H](C[C@H](OC(=O)Cn5ncn(-c6ccc(Br)cc6)c5=O)C(=O)C4(C)C)[C@]3(C)C(=O)C[C@]12C

>  <Obs Value>
67.5%

$$$$
>  <Chemical Smiles>
CC(=O)OC(C)(C)/C=C/C(=O)[C@](C)(O)[C@H]1[C@H](O)C[C@@]2(C)[C@@H]3CC=C4[C@@H](C[C@H](OC(=O)c5cccs5)C(=O)C4(C)C)[C@]3(C)C(=O)C[C@]12C

>  <Obs Value>
75.2%

$$$$
>  <Chemical Smiles>
CC(=O)OC(C)(C)/C=C/C(=O)[C@](C)(O)[C@H]1[C@H](O)C[C@@]2(C)[C@@H]3CC=C4[C@@H](C[C@H](OC(=O)Cn5ncn(-c6ccc(C)cc6)c5=O)C(=O)C4(C)C)[C@]3(C)C(=O)C[C@]12C

>  <Obs Value>
68.2%

$$$$
>  <Chemical Smiles>
CC(=O)OC(C)(C)/C=C/C(=O)[C@](C)(O)[C@H]1[C@H](O)C[C@@]2(C)[C@@H]3CC=C4[C@@H](C[C@H](OC(=O)/C=C/c5ccccc5)C(=O)C4(C)C)[C@]3(C)C(=O)C[C@]12C

>  <Obs Value>
72.7%

$$$$
>  <Chemical Smiles>
CC(=O)OC(C)(C)/C=C/C(=O)[C@](C)(O)[C@H]1[C@H](O)C[C@@]2(C)[C@@H]3CC=C4[C@@H](C[C@H](OC(=O)c5cn(-c6ccc(C)cc6)nn5)C(=O)C4(C)C)[C@]3(C)C(=O)C[C@]12C

>  <Obs Value>
72.4%

$$$$
>  <Chemical Smiles>
CC(=O)OC(C)(C)/C=C/C(=O)[C@](C)(O)[C@H]1[C@H](O)C[C@@]2(C)[C@@H]3CC=C4[C@@H](C[C@H](OC(=O)c5ccccn5)C(=O)C4(C)C)[C@]3(C)C(=O)C[C@]12C

>  <Obs Value>
71.2%

$$$$
>  <Chemical Smiles>
CC(=O)OC(C)(C)/C=C/C(=O)[C@](C)(O)[C@H]1[C@H](OC(=O)/C=C/c2ccc(F)cc2)C[C@@]2(C)[C@@H]3CC=C4[C@@H](C[C@H](O)C(=O)C4(C)C)[C@]3(C)C(=O)C[C@]12C

>  <Obs Value>
67%

$$$$
>  <Chemical Smiles>
COc1ccc(/C=C/C(=O)O[C@H]2C[C@@H]3C(=CC[C@@H]4[C@@]3(C)C(=O)C[C@]3(C)[C@@H]([C@@](C)(O)C(=O)/C=C/C(C)(C)OC(C)=O)[C@H](O)C[C@@]43C)C(C)(C)C2=O)cc1

>  <Obs Value>
67.3%

$$$$
